Test system: SR leukemia
RUN DESCRIPTION: NCI tumour cell line growth inhibition, 48 h
QUANTITY NAME: TGI

1) CSC(=S)Nc1cc(C)cc(C)n1: > 10 µM
2) Nc1ccn(C2CC(F)C(CO)O2)c(=O)n1 (configuration not stated): > 100 µM
3) COC(=O)c1cc(-c2ccccc2)[nH]c1N/N=C/c1c(Cl)cccc1Cl: > 100 µM
4) NNC(=O)Nc1nc2ccc(NN)cc2[nH]1: 43.2 µM
5) CCOC(=O)/C(C(N)=O)=C(\O)C(=O)/C(Br)=C(\O)c1ccccc1: 12.1 µM
6) Clc1sc(Cl)c2c1[C@@H](Cl)C[C@@H]2Cl: > 100 µM
7) O=S(=O)(NC1CCCCC1)c1ccc2c(c1)OCCOCCOCCOCCO2: > 100 µM
8) C[C@H]1[C@H](C)N1CC(O)Cn1ccnc1[N+](=O)[O-] (some centres not stated): > 100 µM
9) O=C(/C=C(\O)C(=O)O)/C=C(\O)c1ccccc1: > 100 µM
10) C#C[C@]1(O)CC[C@H]2[C@@H]3CCC4=C/C(=N/NC(=O)c5cccc6c(=O)c7ccccc7[nH]c56)CCC4[C@H]3CC[C@@]21C (some centres not stated): > 100 µM
11) O=c1[nH]nc(-c2ccccc2)n1/N=C/c1ccc([N+](=O)[O-])o1: > 100 µM
12) COc1cc2cc(C(=O)N3CC(COS(C)(=O)=O)c4ccc(NC(=O)OCc5ccccc5)cc43)[nH]c2c(OC)c1OC (configuration not stated): > 100 µM
13) COC(=O)C1=C(OC(=O)/C(=C/c2ccccc2)c2ccc(OC)cc2)C(C(=O)OC)[C@@]2(O)[C@@H](C(=O)OC)[C@H](C)C[C@@H]1[C@@H]2C(=O)OC (some centres not stated): > 100 µM
14) O=C1CCc2c(sc3[nH]c(=S)n(-c4cc(C(F)(F)F)cc(C(F)(F)F)c4)c(=O)c23)C1: > 100 µM
15) CCC1(O)CC(OC2CC(N(C)C)C(OC3CC(O)C(OC4OC(C)C(=O)C=C4N)C(C)O3)C(C)O2)c2c(cc3c(c2O)C(=O)c2c(O)cccc2C3=O)C1C(=O)OC (configuration not stated): 1.06 µM
16) CCCCCCCCCCCC1=NC(C)(C)CN1C(C)(C)CO: 12.5 µM
17) C=CC(=O)N1C/C(=C\c2ccc(Cl)c(Cl)c2)C(=O)/C(=C/c2ccc(Cl)c(Cl)c2)C1: 0.0648 µM
18) O=C(O)C[C@H](O)C[C@H](O)/C=C/c1c(C2CC2)nc2ccccc2c1-c1ccc(F)cc1: > 100 µM
19) COc1ccc([C@H](CC(=O)O)N2CCN(CCCc3ccc4c(n3)NCCC4)C2=O)cn1: > 100 µM
20) CC(C(=O)OCc1ccccc1)N(Cc1ccccc1)Cc1ccccc1 (configuration not stated): > 100 µM
21) C=C1C(=O)O[C@H]2[C@H]1CC/C(COC(=O)CCCCCC(=O)OC/C1=C/CC[C@@]3(C)O[C@H]3[C@H]3OC(=O)C(=C)[C@@H]3CC1)=C\CC[C@@]1(C)O[C@@H]21: 5.58 µM
22) C=C(C(=O)O[C@H]1C/C(C)=C/CC/C(CO)=C/[C@H]2C(=O)OC(=C)[C@H]12)C(O)CO (some centres not stated): 6.81 µM
23) CN1C(=O)c2ccc3ccccc3c2C1=O: > 100 µM
24) C(/C=N/NC1=NCCCCN1)=N\NC1=NCCCCN1: > 100 µM
25) Oc1c(C(Nc2ccccc2Br)c2ccccc2)ccc2cccnc12 (configuration not stated): > 100 µM
26) Cc1ccc(S(=O)(=O)N2C[C@@H]3CC[C@]4(CO[Si](C)(C)C(C)(C)C)N[C@@H](c5ccccc5)[C@H]2[C@H]34)cc1: > 100 µM
27) NS(=O)(=O)c1nc(S(=O)(=O)O)c2[nH]cnc2n1: > 100 µM
28) C#C[C@]1(O)CC[C@H]2[C@@H]3CC=C4c5sc(Nc6cc(F)ccc6F)nc5CC[C@]4(C)[C@H]3CC[C@@]21C: > 100 µM
29) C=C(C)[C@@H]1CCC=C2CC[C@]3(C)[C@H](CC[C@@H]4[C@@]5(C)CCCNC(C)(C)[C@@H]5CC[C@]43C)[C@H]21: 3.65 µM
30) O=C(O)CSc1ccccc1C(=O)O: > 100 µM
31) CCOC(=O)C1CC(C(=O)c2ccccc2)N2c3ccccc3-c3ccccc3C12 (configuration not stated): 84.1 µM
32) CC(=O)O[C@H]1CC[C@@]2(C)C(=CC[C@@H]3[C@@H]2CC[C@]2(C)C(=N/O)/C(=C\c4ccccc4)C[C@@H]32)C1: > 42.3 µM
33) CCCC[C@@H](C)/C=C1\CN2CCC[C@H]2[C@@](C)(OCc2ccccc2)[C@@H]1O: > 50 µM
34) O=C(O)C(Cc1cnc[nH]1)N1C(=O)c2ccccc2C1=O (configuration not stated): > 100 µM
35) Cc1cccc2c(N)c3cccc(C(=O)NCC[N+](C)(C)Cc4ccc([N+](=O)[O-])s4)c3nc12: 5.7 µM
36) COc1cccc(N=N/C(=N/NC(=O)c2ccc(C)cc2)c2ccc(N(CCC#N)CCC#N)cc2OC)c1: > 100 µM
37) COc1cc2ccc(C(=O)NCCCNC(=O)c3ccc4cc(OC)c(OC)cc4c3)cc2cc1OC: > 100 µM

Cited source for all entries: PubChem BioAssay (NCI)
